Origin of values: patent EP0537993A1

Biological target: muscarinic receptors
Experiment: Inhibition of 3H-oxotremorine-M binding to hippocampal membranes
Conditions: [3H]oxotremorine ([3H]OXO) binding, muscarinic receptor affinity, rat membranes
Listed here: items and their measured Ki.

[
  {
    "Compound": "CN1CC=C(C(=O)C(C)(C)C)CC1",
    "Ki": "6.25 µM"
  },
  {
    "Compound": "CCC(C)C(=O)C1=CCN(C)CC1 (centres unmarked)",
    "Ki": "4.79 µM"
  }
]
